# Assay procedure: A quantitative high throughput screen for small molecules that induce DNA re-replication in MCF 10a normal breast cells. Further: nearly all actives have a fitted effect of over 50% in size.
# Condition info: MCF 10A DNA re-replication, Hoechst nuclear intensity, 48 h; series mostly up to 46.1 µM
In all, about 350,000 compounds went through this assay and about 9,900 (2.8%) were called active. Not shown: some 15% with an inconclusive outcome. The call rests on the fitted dose curve; in most records, active means well fitted activation curve with a large enough effect; inconclusive means small, poorly fitted or top-dose-only effect; inactive means no such curve, though single readings can be large or run the other way. The entries come from a sample that favours actives as a whole.
Outcomes: active, inactive

molecule=C[C@@H]1ON(C)[C@H]2C[C@H]3c4cc(N5CCN(C)CC5)ccc4CCN3C(=O)[C@@H]12 group=inactive
molecule=Cc1ccc(S(=O)(=O)N2[C@@H](c3ccccc3F)C(C(=O)O)=CC[C@H]2c2ccc(Cl)cc2)cc1 group=active
molecule="COc1cccc(CC2(CO)CCCN(Cc3ccc(OC(F)F)cc3)C2)c1 (stereo not drawn)" group=inactive
molecule="CCc1[nH]nc(C(=O)N2CCCC(CO)(Cc3ccc(F)cc3F)C2)c1C (stereo not drawn)" group=inactive
molecule="CC(=O)OCC1(O)CC23CCC4c5ccoc5CCC4(C)C2CCC1C3 (stereo not drawn)" group=inactive
molecule=c1cncc(-c2nnc3n2C2(CCCCC2)Cc2ccccc2-3)c1 group=inactive
molecule=COc1ccc(CN2CN(C(C)C)CSC2=S)cc1 group=active
molecule=OCC[C@H]1C[C@@H](O)[C@H](O)[C@@]2(OCCc3ccccc32)O1 group=inactive
molecule=Cc1csc(=O)n1CCC(=O)OCC(=O)NNC(=O)c1ccc(Br)cc1 group=inactive
molecule="NC(CSC1(c2ccccc2)c2ccccc2-c2ccccc21)C(=O)O (stereo not drawn)" group=inactive
molecule=O=C(CN1C(=O)COc2ccccc21)Nc1ccc(F)cc1 group=active
molecule=Cc1csc(=O)n1CC(=O)Nc1ccc(S(C)(=O)=O)cc1 group=inactive
molecule=Cc1ccc(SCC(=O)N2CCN(c3ccc(F)cc3)CC2)cc1 group=inactive
molecule=O=C(NOCc1ccccc1)c1cccc([N+](=O)[O-])c1 group=inactive
molecule="CCCC(NCC(=O)Nc1ccccc1C(=O)NC1CC1)c1ccccc1 (stereo not drawn)" group=inactive
molecule=O=C(CCC(=O)N1CCN(S(=O)(=O)c2ccc(Cl)cc2)CC1)NCc1cccc(C(F)(F)F)c1 group=inactive
molecule=O=C1COc2c1ccc(O)c2O group=inactive
molecule=CCN1CCC2(CC1)N=C(c1ccc(F)cc1)C(=S)N2C(=O)c1ccc(C)cc1 group=active
